- Tested on: Mycobacterium tuberculosis Erdman (autoluminescent)
- run_description: GRinf, maximum normalised growth rate inhibition (unitless (-1 to 1)); higher = less effect (negative = killing)
- protocol_conditions: in vitro model: butyrate; time point: terminal (~4-5 doublings, model-specific)
Could you label it true (1) if measured GRinf is -0.02 or higher, and false (0) otherwise?

compound | system_name | label_value
CC(C)/N=c1\cc2n(-c3ccc(Cl)cc3)c3ccccc3nc-2cc1Nc1ccc(Cl)cc1 [clofazimine] + O=[N+]([O-])c1cn2c(n1)OC[C@@H](OCc1ccc(OC(F)(F)F)cc1)C2 [pretomanid] | Mycobacterium tuberculosis Erdman (autoluminescent) | false (0)
COc1nc2ccc(Br)cc2cc1[C@@H](c1ccccc1)[C@@](O)(CCN(C)C)c1cccc2ccccc12 [bedaquiline] + CO[C@H]1/C=C/O[C@@]2(C)Oc3c(C)c(O)c4c(O)c(c(/C=N/N5CCN(C)CC5)c(O)c4c3C2=O)NC(=O)/C(C)=C\C=C\[C@H](C)[C@H](O)[C@@H](C)[C@@H](O)[C@@H](C)[C@H](OC(C)=O)[C@@H]1C [rifampicin] | Mycobacterium tuberculosis Erdman (autoluminescent) | false (0)
CC(C)/N=c1\cc2n(-c3ccc(Cl)cc3)c3ccccc3nc-2cc1Nc1ccc(Cl)cc1 [clofazimine] + CC[C@@H](CO)NCCN[C@@H](CC)CO [ethambutol] | Mycobacterium tuberculosis Erdman (autoluminescent) | false (0)
COc1nc2ccc(Br)cc2cc1[C@@H](c1ccccc1)[C@@](O)(CCN(C)C)c1cccc2ccccc12 [bedaquiline] + O=[N+]([O-])c1cn2c(n1)OC[C@@H](OCc1ccc(OC(F)(F)F)cc1)C2 [pretomanid] | Mycobacterium tuberculosis Erdman (autoluminescent) | false (0)
COc1c(N2C[C@@H]3CCCN[C@@H]3C2)c(F)cc2c(=O)c(C(=O)O)cn(C3CC3)c12 [moxifloxacin] + O=[N+]([O-])c1cn2c(n1)OC[C@@H](OCc1ccc(OC(F)(F)F)cc1)C2 [pretomanid] | Mycobacterium tuberculosis Erdman (autoluminescent) | false (0)
CC[C@@H](CO)NCCN[C@@H](CC)CO [ethambutol] + CC(=O)NC[C@H]1CN(c2ccc(N3CCOCC3)c(F)c2)C(=O)O1 [linezolid] | Mycobacterium tuberculosis Erdman (autoluminescent) | true (1)
CC(C)/N=c1\cc2n(-c3ccc(Cl)cc3)c3ccccc3nc-2cc1Nc1ccc(Cl)cc1 [clofazimine] + CO[C@H]1/C=C/O[C@@]2(C)Oc3c(C)c(O)c4c(O)c(c(/C=N/N5CCN(C6CCCC6)CC5)c(O)c4c3C2=O)NC(=O)/C(C)=C\C=C\[C@H](C)[C@H](O)[C@@H](C)[C@@H](O)[C@@H](C)[C@H](OC(C)=O)[C@@H]1C [rifapentine] | Mycobacterium tuberculosis Erdman (autoluminescent) | false (0)
CC[C@@H](CO)NCCN[C@@H](CC)CO [ethambutol] + COc1c(N2C[C@@H]3CCCN[C@@H]3C2)c(F)cc2c(=O)c(C(=O)O)cn(C3CC3)c12 [moxifloxacin] | Mycobacterium tuberculosis Erdman (autoluminescent) | false (0)
CC(=O)NC[C@H]1CN(c2ccc(N3CCOCC3)c(F)c2)C(=O)O1 [linezolid] + COc1c(N2C[C@@H]3CCCN[C@@H]3C2)c(F)cc2c(=O)c(C(=O)O)cn(C3CC3)c12 [moxifloxacin] | Mycobacterium tuberculosis Erdman (autoluminescent) | true (1)
CC(=O)NC[C@H]1CN(c2ccc(N3CCOCC3)c(F)c2)C(=O)O1 [linezolid] + NC(=O)c1cnccn1 [pyrazinamide] | Mycobacterium tuberculosis Erdman (autoluminescent) | true (1)
COc1c(N2C[C@@H]3CCCN[C@@H]3C2)c(F)cc2c(=O)c(C(=O)O)cn(C3CC3)c12 [moxifloxacin] + CO[C@H]1/C=C/O[C@@]2(C)Oc3c(C)c(O)c4c(O)c(c(/C=N/N5CCN(C)CC5)c(O)c4c3C2=O)NC(=O)/C(C)=C\C=C\[C@H](C)[C@H](O)[C@@H](C)[C@@H](O)[C@@H](C)[C@H](OC(C)=O)[C@@H]1C [rifampicin] | Mycobacterium tuberculosis Erdman (autoluminescent) | true (1)
